meta.source: patent US20250326708A1

Quick reference: Cellular transfection efficiency, times that of YK-501 of the listed items.
Test system: 293T cells
protocol summary: Fluorescence detection of Fluc-mRNA (transfection efficiency) of LNP preparations
Format: cell-based
experimental parameters: Fluc-mRNA LNP, vs YK-501
readout: Cellular transfection efficiency, times that of YK-501 (times)

- compound: "CCCCCCCCCCC(CCCCCCCC)COC(=O)CCCCCNC(CO)(CO)CCc1ccc(CCCCCCCC)cc1 (centres unmarked)"
  result value: 123.46
- compound: "CCCCCCCCCCOC(=O)CCCN(CCCCCC(=O)OCCC(CCCCCC)CCCCCC)CCNC(CO)(CO)CCc1ccc(CCCCCCCC)cc1"
  result value: 146.62
- compound: "CCCCCCCCc1ccc(CCC(CO)(CO)NCCCCCCNC(=O)C(CCCCCC)CCCCCCCC)cc1 (centres unmarked)"
  result value: 109.64
- compound: "CCCCCCCCCCC(CCCCCCCCCC)CCCOC(=O)CCCNC(CO)(CO)CCc1ccc(CCCCCCCC)cc1"
  result value: 6.73
- compound: "CCCCCCCCCCCOC(=O)CCCN(CCCCCCC(=O)OCCC(CCCCCC)CCCCCC)CCNC(CO)(CO)CCc1ccc(CCCCCCCC)cc1"
  result value: 186.59
